Measured protease stability score values are reported for all entries that follow.
Experiment: protease stability score; higher = more stable; yeast display proteolysis, trypsin and chymotrypsin;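 note: relative to predicted unfolded state with 0 unfolded-like and 1 meaning tenfold more protease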
Reply with the value as a number alone.

Measured protease stability score of SDEEKIARLALEILIKILLTGDEKMILDNADPDVRLEVNGRQIHGMEWLSKIMTEWRFRDTHVRSVRNINGVVHVDGEQDVNYNGREETVHTHYIIEKVNGVWFLKRVVLH : 1.44

Measured protease stability score of TEEEKHARLVKEHIVEILKTGDEREWMERADPNMYMTVGNKEQHGREQVMHLIERLLKELGIKHSHIKRLELQGDKVHLDVELNFNGVTRDSRLIFIVINGRFHEVIIIIH : 0.947

Measured protease stability score of SEDDESLKRHIDLLLRVLETGNEEDLFRMIDPDAKMDWNGVDNHGMELIHKVWHELGLSNVRSHTEDFRVVGDKAEIHIRVEFNGRHHRVEIHTLKINGRWRVRRFHIR : 2.4
